Target: NPR-B (Mus musculus, UniProt Q6VVW5)
Construct: Murine NIH3T3 cells express endogenously the CNP signaling receptor, NPR-B; endogenous in cells; host or cells: NIH3T3 (murine fibroblasts)
Assay: Stimulation of cGMP production in NIH3T3 cells
Format: cell-based, Murine
Settings: NIH3T3, […], read-out: cGMP Response rel. to 1 uM CNP22, 1 uM
experimental.readout: cGMP response relative to 1 uM CNP22 (%) at 1 µM
Kindly write the number and append the unit.

Quick one: cGMP response relative to 1 uM CNP22 (%) at 1 µM for "CC[C@H](C)[C@@H]1NC(=O)[C@H](CCCNC(=N)N)NC(=O)[C@H](CC(=O)O)NC(=O)[C@H](CC(C)C)NC(=O)[C@H](CCCCN)NC(=O)[C@H](CC(C)C)NC(=O)CNC(=O)[C@H](Cc2ccccc2)N(C)C(=O)[C@@H](NC(=O)CNC(=O)[C@H](CCCCN)NC(=O)[C@H](CO)NC(=O)[C@H](CC(C)C)NC(=O)CN)CSSC[C@@H](C(=O)O)NC(=O)CNC(=O)[C@H](CC(C)C)NC(=O)CNC(=O)[C@H](CO)NC(=O)[C@H](CCSC)NC(=O)[C@H](CO)NC(=O)CNC1=O" ?
38%

----------
Provide the recorded cGMP response relative to 1 uM CNP22 (%) at 0.01 µM for the entries that follow.
Target: NPR-B (Mus musculus)
Construct: Murine NIH3T3 cells express endogenously the CNP signaling receptor, NPR-B; endogenous in cells; host or cells: NIH3T3 (murine fibroblasts)
Sequence (Q6VVW5 17-1047): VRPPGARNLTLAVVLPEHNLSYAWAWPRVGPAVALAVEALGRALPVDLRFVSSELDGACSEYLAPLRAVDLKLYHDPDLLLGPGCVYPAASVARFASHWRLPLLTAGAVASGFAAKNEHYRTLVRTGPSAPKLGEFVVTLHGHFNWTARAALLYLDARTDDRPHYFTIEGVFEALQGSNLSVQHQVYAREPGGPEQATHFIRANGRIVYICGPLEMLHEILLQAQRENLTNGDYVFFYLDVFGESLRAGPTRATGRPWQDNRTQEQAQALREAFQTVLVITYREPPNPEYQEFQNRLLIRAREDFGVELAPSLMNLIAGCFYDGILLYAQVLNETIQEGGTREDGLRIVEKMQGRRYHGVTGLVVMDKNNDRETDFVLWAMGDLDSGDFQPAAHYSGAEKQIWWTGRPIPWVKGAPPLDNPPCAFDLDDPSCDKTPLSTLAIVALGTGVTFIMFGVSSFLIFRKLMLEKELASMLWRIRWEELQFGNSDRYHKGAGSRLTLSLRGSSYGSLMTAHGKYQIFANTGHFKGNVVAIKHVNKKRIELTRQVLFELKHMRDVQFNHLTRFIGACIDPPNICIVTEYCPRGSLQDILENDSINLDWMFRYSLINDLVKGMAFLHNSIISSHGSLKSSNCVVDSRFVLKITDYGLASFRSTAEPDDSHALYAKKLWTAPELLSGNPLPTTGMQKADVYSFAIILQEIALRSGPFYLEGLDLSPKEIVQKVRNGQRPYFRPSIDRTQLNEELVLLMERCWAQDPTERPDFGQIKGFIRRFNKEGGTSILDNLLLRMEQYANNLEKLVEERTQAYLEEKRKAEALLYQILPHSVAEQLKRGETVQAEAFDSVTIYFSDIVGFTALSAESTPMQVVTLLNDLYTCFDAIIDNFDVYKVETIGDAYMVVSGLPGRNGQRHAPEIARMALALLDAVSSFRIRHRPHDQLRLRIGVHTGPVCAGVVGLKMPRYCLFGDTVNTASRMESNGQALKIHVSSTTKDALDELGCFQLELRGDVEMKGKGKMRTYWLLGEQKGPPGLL
Experiment: Stimulation of cGMP production in NIH3T3 cells
Type: cell-based, Murine
Settings: NIH3T3 cells; 10 nM natriuretic peptide; normalized to cell number and cGMP production with 1 uM wtCNP22; read-out: cGMP Response rel. to 1 uM CNP22, 10 nM
Bridge positions count the residues as written; N and C are the ends. Peptide text beside a SMILES is read from it.
Give the quantity in %, number only.

Reported cGMP response relative to 1 uM CNP22 (%) at 0.01 µM for CC[C@H](C)[C@@H]1NC(=O)[C@H](CCCNC(=N)N)NC(=O)[C@H](CC(=O)O)NC(=O)[C@H](CC(C)C)NC(=O)[C@H](CCCNC(=N)N)NC(=O)[C@H](CC(C)C)NC(=O)CNC(=O)[C@H](Cc2ccccc2)NC(=O)[C@@H](NC(=O)CNC(=O)[C@H](CCCNC(=N)N)NC(=O)[C@H](CO)NC(=O)[C@H](CC(C)C)NC(=O)CN)CSSC[C@@H](C(=O)O)NC(=O)CNC(=O)[C@H](CC(C)C)NC(=O)CNC(=O)[C@H](CO)NC(=O)[C@H](CCSC)NC(=O)[C@H](CO)NC(=O)CNC1=O [BH] (H-GLSRGCFGLRLDRIGSMSGLGC-OH; disulfide 6-22) : what is it?
12

Repeat for the following compound: "CC[C@H](C)[C@@H]1NC(=O)[C@H](CCCNC(=N)N)NC(=O)[C@H](CC(=O)O)NC(=O)[C@H](CC(C)C)NC(=O)[C@H](CCCCN)NC(=O)[C@H](CC(C)C)NC(=O)CNC(=O)[C@H](Cc2ccccc2)NC(=O)[C@@H](NC(=O)CNC(=O)[C@H](CCCCN)NC(=O)[C@H](CO)NC(=O)[C@H](CC(C)C)NC(=O)CN)CSSC[C@@H](C(=O)O)NC(=O)CNC(=O)[C@H](CC(C)C)NC(=O)CNC(=O)[C@H](CO)NC(=O)[C@H](CCSC)NC(=O)[C@H](CO)NC(=O)CNC1=O"
46

----------
Test: Pharmacokinetics in normal rats after single i.v. or s.c. administration
Details: male, rat, in vivo, iv, 20 nmol/kg
experimental.readout: AUC (nM·h)
Give your result in nM·h as a bare value.

Consider the compound shown here: CC[C@H](C)[C@@H]1NC(=O)[C@H](CCCNC(=N)N)NC(=O)[C@H](CC(=O)O)NC(=O)[C@H](CC(C)C)NC(=O)[C@H](CCCCN)NC(=O)[C@H](CC(C)C)NC(=O)CNC(=O)[C@H](Cc2ccccc2)NC(=O)[C@@H](NC(=O)CNC(=O)[C@H](CCCCN)NC(=O)[C@H](CO)NC(=O)[C@H](CC(C)C)NC(=O)CN)CSSC[C@@H](C(=O)O)NC(=O)CNC(=O)[C@H](CC(C)C)NC(=O)CNC(=O)[C@H](CO)NC(=O)[C@H](CCSC)NC(=O)[C@H](CO)NC(=O)CNC1=O [CNP22, CNP-22] What is its recorded AUC?
5.33

----------
Assay: Pharmacokinetics in normal rats after single i.v. or s.c. administration
Settings: male, rat, in vivo, iv, 20 nmol/kg
experimental.readout: half-life (min)
# value in min; strip the unit string

What measured half-life goes with "CC[C@H](C)[C@@H]1NC(=O)[C@H](CCCNC(=N)N)NC(=O)[C@H](CC(=O)O)NC(=O)[C@H](CC(C)C)NC(=O)[C@H](CCCCN)NC(=O)[C@H](CC(C)C)NC(=O)CNC(=O)[C@H](Cc2ccccc2)NC(=O)[C@@H](NC(=O)CNC(=O)[C@H](CCCCN)NC(=O)[C@H](CO)NC(=O)[C@H](CC(C)C)NC(=O)CN)CSSC[C@@H](C(=O)O)NC(=O)CNC(=O)[C@H](CC(C)C)NC(=O)CNC(=O)[C@H](CO)NC(=O)[C@H](CCSC)NC(=O)[C@H](CO)NC(=O)CNC1=O" ?
1.42

----------
Biological target: neutral endopeptidase (NEP) (Homo sapiens, UniProt P08473)
Sequence (P08473 whole entry): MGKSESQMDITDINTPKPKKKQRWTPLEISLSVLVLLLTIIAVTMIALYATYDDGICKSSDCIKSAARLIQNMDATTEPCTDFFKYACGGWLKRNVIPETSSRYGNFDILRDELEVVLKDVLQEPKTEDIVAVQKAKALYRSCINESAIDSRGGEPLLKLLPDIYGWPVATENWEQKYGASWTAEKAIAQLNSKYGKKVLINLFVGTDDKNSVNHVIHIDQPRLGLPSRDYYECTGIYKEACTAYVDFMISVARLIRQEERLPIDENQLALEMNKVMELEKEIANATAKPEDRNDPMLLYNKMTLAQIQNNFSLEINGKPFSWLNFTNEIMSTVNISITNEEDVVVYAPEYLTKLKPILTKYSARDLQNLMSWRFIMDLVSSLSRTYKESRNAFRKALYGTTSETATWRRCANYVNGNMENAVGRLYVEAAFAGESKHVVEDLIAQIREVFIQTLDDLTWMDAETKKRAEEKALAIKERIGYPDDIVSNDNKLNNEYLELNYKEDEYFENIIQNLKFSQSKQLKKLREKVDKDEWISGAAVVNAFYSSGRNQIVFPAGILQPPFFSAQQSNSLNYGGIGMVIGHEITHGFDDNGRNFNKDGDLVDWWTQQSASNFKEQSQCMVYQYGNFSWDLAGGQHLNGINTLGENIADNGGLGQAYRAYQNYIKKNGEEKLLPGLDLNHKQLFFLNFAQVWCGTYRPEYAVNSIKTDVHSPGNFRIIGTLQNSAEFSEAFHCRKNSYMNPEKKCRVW
Test: In vitro neutral endopeptidase (NEP) cleavage assay
Settings: human, pH 7
experimental.readout: half-life at 100 uM

Hi! What's the reported half-life at 100 uM for "CC[C@H](C)[C@@H]1NC(=O)[C@H](CCCNC(=N)N)NC(=O)[C@H](CC(=O)O)NC(=O)[C@H](CC(C)C)N(C)C(=O)[C@H](CCCCN)NC(=O)[C@H](CC(C)C)N(C)C(=O)CNC(=O)[C@H](Cc2ccccc2)NC(=O)[C@@H](NC(=O)CNC(=O)[C@H](CCCCN)NC(=O)[C@H](CO)NC(=O)[C@H](CC(C)C)NC(=O)CN)CSSC[C@@H](C(=O)O)NC(=O)CNC(=O)[C@H](CC(C)C)N(C)C(=O)CNC(=O)[C@H](CO)NC(=O)[C@H](CCSC)NC(=O)[C@H](CO)NC(=O)CNC1=O" on neutral endopeptidase (NEP) (Homo sapiens, UniProt P08473)?
0.5 h

Now this one: "CC[C@H](C)[C@@H]1NC(=O)[C@H](CCCNC(=N)N)NC(=O)[C@H](CC(=O)O)NC(=O)[C@H](CC(C)C)N(C)C(=O)[C@H](CCCCN)NC(=O)[C@H](CC(C)C)N(C)C(=O)CNC(=O)[C@H](Cc2ccccc2)NC(=O)[C@@H](NC(=O)CNC(=O)[C@H](CCCCN)NC(=O)[C@H](CO)NC(=O)[C@H](CC(C)C)NC(=O)CN)CSSC[C@@H](C(=O)O)NC(=O)CNC(=O)[C@H](CC(C)C)NC(=O)CNC(=O)[C@H](CO)NC(=O)[C@H](CCSC)NC(=O)[C@H](CO)NC(=O)CNC1=O"
> 2.67 h

Likewise for "CC[C@H](C)[C@@H]1NC(=O)[C@H](CCCNC(=N)N)NC(=O)[C@H](CC(=O)O)NC(=O)[C@H](CC(C)C)NC(=O)[C@H](CCCCN)NC(=O)[C@H](CC(C)C)NC(=O)CNC(=O)[C@H](Cc2ccccc2)NC(=O)[C@@H](NC(=O)CNC(=O)[C@H](CCCCN)NC(=O)[C@H](CO)NC(=O)[C@H](CC(C)C)NC(=O)CN)CSSC[C@@H](C(=O)O)NC(=O)CNC(=O)[C@H](CC(C)C)NC(=O)CNC(=O)[C@H](CO)NC(=O)[C@H](CCSC)NC(=O)[C@H](CO)NC(=O)CNC1=O" ?
1.33 h

Proceed to "CC[C@H](C)[C@@H]1NC(=O)[C@H](CCCNC(=N)N)NC(=O)[C@H](CC(=O)O)NC(=O)[C@H](CC(C)C)NC(=O)[C@H](CCCCN)NC(=O)[C@H](CC(C)C)N(C)C(=O)CNC(=O)[C@H](Cc2ccccc2)NC(=O)[C@@H](NC(=O)CNC(=O)[C@H](CCCCN)NC(=O)[C@H](CO)NC(=O)[C@H](CC(C)C)NC(=O)CN)CSSC[C@@H](C(=O)O)NC(=O)CNC(=O)[C@H](CC(C)C)N(C)C(=O)CNC(=O)[C@H](CO)NC(=O)[C@H](CCSC)NC(=O)[C@H](CO)NC(=O)CNC1=O"
1.33 h

Hey, just so you know, these numbers are from patent US8377884B2.
